Reference source for all entries: PubChem BioAssay (NCI)

Tested on: PC-3 prostate
test_description: NCI-60 one-dose screen, 48 h (100 = growth as untreated, 0 = no growth, -100 = all killed)
condition_label: 10 µM unless noted
About 83,000 compounds went through this panel and 20% of them were active in at least one assay; those are over-represented in the sample as a whole.
The threshold is 90%. Values of growth beneath it are tagged MET; values meeting or exceeding it are tagged NOT MET.

Cc1cc(NCCCNc2ccnc3cc(Cl)ccc23)nc(N2CCN(C)CC2)n1	MET
Cc1c(C(N)=O)sc2nc(SCC(=O)Nc3ccc(Cl)cc3)n(-c3ccccc3)c(=O)c12	MET
CN(C)c1nc(N)nc(Cn2c(-c3nonc3N)nc3ccccc32)n1	MET
Clc1ncn[nH]1	NOT MET
CCCCCCCCCCCCCCCCCC1=NC(C)(C)CN1CCO	MET

Task item: Please indicate whether the reported growth of Nc1nc(N)c([N+](=O)[O-])c(=O)[nH]1 is strictly below 90%.
Reply: NOT MET

Task item: Please indicate whether the reported growth of Nc1nc(SCC2(CCl)COC2)c2[nH]cnc2n1 is strictly below 90%.
Reply: NOT MET

Task item: Please indicate whether the reported growth of CN=C(NC)N/N=C(C)\C=N\NC(=NC)NC is strictly below 90%.
Reply: NOT MET

Task item: Please indicate whether the reported growth of CSc1ccc2c(c1)N(CCC1CCCCN1C)c1ccccc1S2 (stereo not drawn) is strictly below 90%.
Reply: MET

Task item: Please indicate whether the reported growth of COc1ccc2[nH]cc(/C=C3/C(=O)Nc4ccc(Cl)cc43)c2c1 is strictly below 90%.
Reply: MET

Task item: Please indicate whether the reported growth of COC(=O)[C@]1(CCSC)N[C@H](c2cn(-c3ccccc3)nc2C)[C@@H]2C(=O)N(c3ccc(C)cc3)C(=O)[C@@H]21 is strictly below 90%.
Reply: NOT MET

====

Measured growth, listed per entry.
System: SF-539 CNS
test_description: NCI-60 one-dose screen, 48 h (100 = growth as untreated, 0 = no growth, -100 = all killed)
condition_label: 10 µM unless noted
This is part of a sample that, as a whole, favours compounds with a hit. Of some 83,000 tested, about 20% had one in any assay.
Give just the number in %; leave the unit off.

Solved entries:
CCCCCCCCCCSc1ncnc2nc[nH]c12	86.8
COc1cc(C2C=C(c3ccc(C)cc3)Nc3nc(SC)[nH]c(=O)c32)ccc1Oc1ccnc2cc(Cl)ccc12 (stereo not given)	100
CC1=CSC2=NCCN12	95.8
CCCn1cnc2c1c(=O)n(CCCCC(C)=O)c(=O)n2C	101
Nc1c2ccccc2nc2ccccc12 (tested in a mixture with another compound)	27.5
CSc1nc2c(c(=O)n1C)C(c1ccccc1)C1=C(N2)/C(=C/c2ccccc2)CCC1 (stereo not given)	63.4
CN(C)CCCN1c2nc3ccccc3cc2Sc2cc3ccccc3nc21	-94.6
CCN(CC)c1ccc(N=Nc2cc(Cl)ccc2Cl)c(NC(=O)CCC(=O)O)c1	79.9

Task item: Which growth reading was recorded for the molecule C=C(C[C@](O)(C(=O)/C=C/c1ccc(Cl)cc1)C(=O)OC)c1ccccc1 ?
Reply: 75.8

Task item: Which growth reading was recorded for the molecule Cc1cc2c(cc1C)Nc1sc(NC(=O)CN3CCN(C)CC3)nc1C(=O)N2 ?
Reply: 107

====

Test system: NCI-H23 lung
test_description: NCI-60 one-dose screen, 48 h (100 = growth as untreated, 0 = no growth, -100 = all killed)
condition_label: 10 µM unless noted
This is part of a sample that, as a whole, favours compounds with a hit. Of some 83,000 tested, about 20% had one in any assay.
The threshold is 90%. Values of growth beneath it are tagged yes; values meeting or exceeding it are tagged no.

Task item: Please indicate whether the reported growth of Clc1nc(Cl)c2ncn(-c3ccccc3)c2n1 is strictly below 90%.
Reply: no

Task item: Please indicate whether the reported growth of Cc1cc2c(cc1C)Nc1sc(NC(=O)CN3CCN(C)CC3)nc1C(=O)N2 is strictly below 90%.
Reply: no

Task item: Please indicate whether the reported growth of O=C(CCc1nnc(Cn2cncn2)o1)c1nc2ccccc2[nH]1 is strictly below 90%.
Reply: no

Task item: Please indicate whether the reported growth of COC(=O)c1ccc2c(c1)nc(-c1ccc(O)c(OC)c1)n2-c1cc(C(C)(C)C)[nH]n1 is strictly below 90%.
Reply: no

Task item: Please indicate whether the reported growth of COc1ccc(/C=C(\C#N)c2ccccc2)cc1 is strictly below 90%.
Reply: no

Task item: Please indicate whether the reported growth of OC(CCC(O)(c1ccccc1)c1ccccc1)(c1ccccc1)c1ccccc1 is strictly below 90%.
Reply: yes

Task item: Please indicate whether the reported growth of Clc1cccc(Cc2cn3cc(-c4ccccc4)nc3s2)c1 is strictly below 90%.
Reply: yes

Task item: Please indicate whether the reported growth of Cc1cc(NCCCNc2ccnc3cc(Cl)ccc23)nc(N2CCN(C)CC2)n1 is strictly below 90%.
Reply: no

Task item: Please indicate whether the reported growth of C[n+]1c2ccccc2c(Nc2ccc(N3CCCCC3)cc2)c2[nH]c3ccccc3c21 is strictly below 90%.
Reply: yes

Task item: Please indicate whether the reported growth of CC(=O)Nc1ccc2c(c1)Cc1c(F)c(F)c(F)c(F)c1-2 is strictly below 90%.
Reply: yes

Task item: Please indicate whether the reported growth of O=C1c2nsnc2C(=O)c2c(F)c(F)c(F)c(F)c21 is strictly below 90%.
Reply: yes

Task item: Please indicate whether the reported growth of CCCCCCC(C)(O)c1ccccc1 (configuration not stated) is strictly below 90%.
Reply: no

Task item: Please indicate whether the reported growth of ClC1=C(Cl)C(=C2C(Cl)=C(Cl)C(Cl)=C2Cl)C(Cl)=C1Cl is strictly below 90%.
Reply: no

Task item: Please indicate whether the reported growth of COc1cc2c(cc1OC)C1CCN3C(=O)CCC3N1CC2 (configuration not stated) is strictly below 90%.
Reply: no

Task item: Please indicate whether the reported growth of O=C1/C(=C/c2ccc3cccc(Cl)c3n2)SC(=S)N1CCc1ccc(O)cc1 is strictly below 90%.
Reply: no

Task item: Please indicate whether the reported growth of Cc1nn(-c2ccc(Cl)cc2)c2nc3c(nc12)c(=O)oc1ccccc13 is strictly below 90%.
Reply: no

Task item: Please indicate whether the reported growth of O=c1[nH]c(=O)n(C2CC(O)C(CO)O2)cc1C(F)(F)F (configuration not stated) is strictly below 90%.
Reply: yes

Task item: Please indicate whether the reported growth of COC1CC2CCC(C)C(O)(O2)C(=O)C(=O)N2CCCCC2C(=O)OC(C(C)CC2CCC(O)C(OC)C2)CC(=O)C(C)C=C(C)C(O)C(OC)C(=O)C(C)CC(C)/C=C/C=C/C=C1C (configuration not stated) is strictly below 90%.
Reply: yes

Task item: Please indicate whether the reported growth of O=C1NCC(Nc2ccc(Br)cc2Cl)C(=O)N1 (configuration not stated) is strictly below 90%.
Reply: no

Task item: Please indicate whether the reported growth of CC(CCC(=O)O)(NC(=O)c1ccc([N+](=O)[O-])cc1)C(=O)O (configuration not stated) is strictly below 90%.
Reply: no

====

System: UO-31 renal
test_description: NCI-60 one-dose screen, 48 h
condition_label: 10 µM unless noted
This is part of a sample that, as a whole, favours compounds with a hit. Of some 83,000 tested, about 20% had one in any assay. Active and inactive are the calls of the source. How the source made its calls: active means growth percent below 10; inactive means the rest.
Respond using exactly one of the listed classes: TRUE (active), FALSE (inactive)

CCC(C)CC(CC)NCCN1CCN(C(CC)CC(C)CC)C1=S (stereo unspecified)	FALSE
Cc1scc2c1N(C(=O)CN1CCN(C)CC1)c1ccccc1NC2=O	FALSE
COc1ccc(C2CC(c3cccc(Nc4ccnc5cc(Cl)ccc45)c3)=NN2C=O)cc1 (stereo unspecified)	FALSE
COC(=O)CCC1=C(CC(=O)OC)C(C)=N/C1=C\c1[nH]c(-c2ccc[nH]2)cc1OC	TRUE
COc1cccc(CCC2C(=O)CCCC2=O)c1	FALSE

Please examine the following record next.
Task item: Outcome logged for O=Nc1ccc(O)c(=O)cc1 in this assay:
Reply: TRUE

====

Tested on: MCF7 breast
test_description: NCI-60 one-dose screen, 48 h (100 = growth as untreated, 0 = no growth, -100 = all killed)
condition_label: 10 µM unless noted
This is part of a sample that, as a whole, favours compounds with a hit. Of some 83,000 tested, about 20% had one in any assay.
Measured growth, listed per entry.
Give just the number in %; leave the unit off.

Solved entries:
CCCCCCCC/C=C/CCCCCCCC1=NC(C)(C)CN1CCO	-55.5
COc1cc(C2CC(c3ccc(C)cc3)=NN2C(C)=O)ccc1Oc1ccnc2cc(Cl)ccc12 (stereo unspecified)	73.6
Cc1cc(CC(=O)O)n(C)c1C(=O)c1ccc(Cl)cc1	120
CCOC(=O)C(C(C)=O)c1nc2sc3cc(Cl)ccc3n2c(=N)c1C#N (stereo unspecified)	58.8
Cn1cc(-c2nc(-c3c[nH]c4ncccc34)cs2)c2cccnc21	59

With those in mind, consider the next compound.
Task item: For MCF7 breast, provide growth of NNC(=O)NO please.
Reply: 94
